// provenance: PubChem BioAssay (NCATS)

Test system: Dd2
Test: qHTS profiling for inhibitors of Plasmodium falciparum proliferation (AID 504749); note: nearly all actives have a fitted effect of over 60% in size
Conditions: P. falciparum in erythrocytes, SYBR Green DNA, 72 h; series mostly up to 28.7 µM
Results filed as inconclusive are left out. The source made the active and inactive calls. Calls come from the whole dose curve; as a rule, active = well fitted inhibition curve with a large enough effect; inconclusive = small, poorly fitted or top-dose-only effect; inactive = flat fitted curve, though single readings scatter.
Possible outcomes: active, inactive

Compound: CCCCCCCCCCCCCCCC(=O)OC(C)C
Measured target: Dd2
Label class: inactive

Compound: CC(C(=O)O)c1ccc2c(c1)[nH]c1ccc(Cl)cc12 (centres undefined)
Measured target: Dd2
Label class: inactive

Compound: Nc1ccc(C(=O)O)c(O)c1
Measured target: Dd2
Label class: inactive

Compound: O=C1CN(/N=C/c2ccc(-c3ccc([N+](=O)[O-])cc3)o2)C(=O)N1
Measured target: Dd2
Label class: inactive

Compound: O=C(Nc1ccc(C(=O)O)c(O)c1)c1ccccc1
Measured target: Dd2
Label class: inactive

Compound: COc1cc(/C=C/C(=O)CC(=O)/C=C/c2ccc(O)c(OC)c2)ccc1O
Measured target: Dd2
Label class: active

Compound: CC1(C)S[C@@H]2[C@H](NC(=O)[C@H](NC(=O)N3CCN(S(C)(=O)=O)C3=O)c3ccccc3)C(=O)N2[C@H]1C(=O)O
Measured target: Dd2
Label class: inactive

Compound: O=C(CCN1CCN(CCO)CC1)N1c2ccccc2Sc2ccc(C(F)(F)F)cc21
Measured target: Dd2
Label class: active

Compound: CC1OC1P(=O)(O)O (centres undefined)
Measured target: Dd2
Label class: inactive

Compound: CCCCC[C@H](O)/C=C/[C@@H]1[C@@H](C/C=C\CCCC(=O)O)[C@@H](O)C[C@H]1O
Measured target: Dd2
Label class: inactive

Compound: O=C(O)Cc1ccc(-c2ccccc2)cc1
Measured target: Dd2
Label class: inactive

Compound: Cc1c(Nc2ncccc2C(=O)O)cccc1C(F)(F)F
Measured target: Dd2
Label class: inactive

Compound: CN1[C@@H]2CC[C@H]1CC(OC(c1ccccc1)c1ccccc1)C2 (some centres undefined)
Measured target: Dd2
Label class: active

Compound: COc1ccc(-c2cc(=S)ss2)cc1
Measured target: Dd2
Label class: inactive

Compound: c1ccc2sc(SSc3nc4ccccc4s3)nc2c1
Measured target: Dd2
Label class: inactive

Compound: O=C(OCc1ccccc1)c1ccccc1
Measured target: Dd2
Label class: inactive

Compound: CCCSc1ccc2nc(NC(=O)OC)[nH]c2c1
Measured target: Dd2
Label class: inactive

Compound: COc1cc2c3cc1Oc1cc(ccc1O)C[C@@H]1c4c(cc(OC)c(O)c4Oc4ccc(cc4)C[C@@H]3N(C)CC2)CC[N+]1(C)C
Measured target: Dd2
Label class: inactive

Compound: O=c1[nH]c2ccccc2n1CCCN1CCN(C(c2ccccc2)c2ccccc2)CC1
Measured target: Dd2
Label class: active

* * *

Experiment: qHTS Assay for Identifying Gametocytocidal Compounds (AID 743244);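 note: % is set by controls: 0 for no effect and ±100 for the full control effect; actives lower the fluorescent signal which means gametocytes are killed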
Settings: P. falciparum 3D7 stage III-V gametocytes, alamarBlue, 72 h; active compounds read low
Records with an inconclusive call do not appear.
In this section we review reported max response values for a set of molecules.

Molecule: N#C/C(=C\c1ccc(-c2cc(Cl)ccc2Cl)o1)C(=O)Nc1cccc2ncccc12
max response, %: -7.88

Molecule: OCC1O[C@H](O)C(Cl)C(O)C1O (some centres not stated)
max response, %: 14.4

Molecule: CCCCCCCCCCCCCCCC(=O)OC(CC(=O)O)C[N+](C)(C)C (configuration not stated)
max response, %: -5.64

Molecule: O=C(O)c1cc(=O)c2ccccc2[nH]1
max response, %: -5.82

Molecule: N.N.O=C(O)C1(C(=O)O)CCC1.[Pt]
max response, %: -4.37

Molecule: O=C(O)CC1CCCc2ccccc2C1O (configuration not stated)
max response, %: 12.4

Molecule: CCc1c(C(=O)NCCc2ccc(N3CCCCC3)cc2)[nH]c2ccc(Cl)cc12
max response, %: 11.6

Molecule: Cc1c(C(=O)O)c(O)cc2c1C(=O)c1c(O)c([C@@H]3O[C@H](CO)[C@@H](O)[C@H](O)[C@H]3O)c(O)c(O)c1C2=O
max response, %: -1.02

Molecule: CC(C(=O)O)c1ccc2c(c1)[nH]c1ccc(Cl)cc12 (configuration not stated)
max response, %: 3.15

Molecule: CCCCCCCCc1ccc(-c2ccc(C(=O)O)cc2)cc1
max response, %: 11.5

Molecule: CCCCCCCCCCCCCCCC(=O)NCC(COP(=O)([O-])OCC[N+](C)(C)C)OCC (configuration not stated)
max response, %: 1.33

Molecule: OC[C@H]1O[C@@H](n2cnc3c(Nc4ccccc4)ncnc32)[C@H](O)[C@@H]1O
max response, %: -5.57

* * *

Assay: qHTS for differential inhibitors of proliferation of Plasmodium falciparum line Dd2 (AID 1882); note: nearly all actives have a fitted effect of over 65% in size
Settings: Plasmodium falciparum Dd2 proliferation inhibition; series mostly up to 28.7 µM
Records with an inconclusive call do not appear. Calls of active or inactive are those of the source. The call rests on the fitted dose curve; in most records, active means well fitted inhibition curve with a large enough effect; inconclusive means small, poorly fitted or top-dose-only effect; inactive means flat fitted curve, though single readings scatter.
Possible outcomes: 1 = active, 0 = inactive

Molecule: Oc1ccc(C2CNCc3sccc32)cc1O (configuration not stated)
Label class: 1
--
Molecule: Cn1c(=O)c2[nH]c(-c3ccccc3)nc2n(C)c1=O
Label class: 0
--
Molecule: OC[C@H]1O[C@@H](n2cnc3c(NC4CCCCC4)ncnc32)[C@H](O)[C@@H]1O
Label class: 0
--
Molecule: NC(CCCP(=O)(O)O)C(=O)O (configuration not stated)
Label class: 0
--
Molecule: CN(C)c1nc(N)c(C(=O)N=C(N)N)nc1Cl
Label class: 0
--
Molecule: NCCCCC(=O)O
Label class: 0
--
Molecule: O=C(O)/C=C/C(O)c1ccc(Cl)cc1 (configuration not stated)
Label class: 0
--
Molecule: C=CC(N)CCC(=O)O (configuration not stated)
Label class: 0
--
Molecule: Fc1cccc(/C=N/N=C/c2cccc(F)c2)c1
Label class: 0
--
Molecule: C=C/C(C)=C/[C@@]1(C)SC(=O)C(C)=C1O
Label class: 0
--
Molecule: CC(C)(C)NCC(O)COc1nsnc1N1CCOCC1 (configuration not stated)
Label class: 0
--
Molecule: O=C(O)CCCC[C@@H]1CCSS1
Label class: 0

* * *

Test system: CP201
Test: qHTS profiling for inhibitors of Plasmodium falciparum proliferation (AID 504749); note: nearly all actives have a fitted effect of over 60% in size
Details: P. falciparum in erythrocytes, SYBR Green DNA, 72 h; series mostly up to 28.7 µM
Inconclusive results are not listed. Calls of active or inactive are those of the source. The call rests on the fitted dose curve; in most records, active means well fitted inhibition curve with a large enough effect; inconclusive means small, poorly fitted or top-dose-only effect; inactive means flat fitted curve, though single readings scatter.
Possible outcomes: yes for active, no for inactive

Compound: CCCOC(=O)c1ccc(O)cc1
Measured target: CP201
Label class: no
--
Compound: Cc1ccc(C(=O)c2ccc(CC(=O)O)n2C)cc1
Measured target: CP201
Label class: no
--
Compound: C[S+](CC[C@H](N)C(=O)O)C[C@H]1O[C@@H](n2cnc3c(N)ncnc32)[C@H](O)[C@@H]1O (stereo partly drawn)
Measured target: CP201
Label class: no
--
Compound: c1ccc2sc(SN3CCOCC3)nc2c1
Measured target: CP201
Label class: no
--
Compound: [O-][n+]1ccccc1SSc1cccc[n+]1[O-]
Measured target: CP201
Label class: yes
--
Compound: CC(C(=O)O)c1ccc2c(c1)[nH]c1ccc(Cl)cc12 (stereo not drawn)
Measured target: CP201
Label class: no
--
Compound: COc1ccc(-c2cc(=S)ss2)cc1
Measured target: CP201
Label class: no
--
Compound: CCCCCC[C@@H](O)C/C=C\CCCCCCCC(=O)O
Measured target: CP201
Label class: no

* * *

Target: N-terminal Xaa-Pro-Lys N-methyltransferase 1 (Homo sapiens)
Assay: qHTS Assay for Inhibitors of N-terminal methyltransferase 1 (NTMT1): LOPAC validation of the NTMT1 SAHH-coupled ThioGlo3 Assay (AID 1347143);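 note: SAH from peptide methylation measured as thiol fluorescence via SAHH coupling and ThioGlo3; nearly all actives have a fitted effect of over 70% in size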
Conditions: recombinant NTMT1, SAHH-coupled ThioGlo3 fluorescence; series mostly up to 114 µM
Inconclusive results are not listed. The source made the active and inactive calls. Calls come from the whole dose curve; as a rule, active = well fitted inhibition curve with a large enough effect; inconclusive = small, poorly fitted or top-dose-only effect; inactive = no such curve, though single readings can be large or run the other way.
Possible outcomes: 1 = active, 0 = inactive

Compound: CNC(=O)[C@H]1O[C@@H](n2cnc3c(NCc4ccc(N)cc4)ncnc32)[C@H](O)C1O (some centres not stated)
Label class: 0
--
Compound: Nc1nc(Cl)nc2c1ncn2[C@@H]1O[C@H](CO)C(O)[C@H]1O (some centres not stated)
Label class: 0
--
Compound: C=C[C@H]1CN2CC[C@@H]1C[C@H]2[C@H](O)c1ccnc2ccc(OC)cc12
Label class: 1
--
Compound: CN1[C@@H](CC(=O)c2ccccc2)CCC[C@H]1C[C@H](O)c1ccccc1
Label class: 0
--
Compound: CNC(=O)[C@H]1O[C@@H](n2cnc3c(NCc4cccc(I)c4)ncnc32)[C@H](O)C1O (some centres not stated)
Label class: 0
--
Compound: CN[C@H](CC(C)C)C(=O)N[C@H]1C(=O)N[C@@H](CC(N)=O)C(=O)N[C@H]2C(=O)N[C@H]3C(=O)N[C@H](C(=O)N[C@H](C(=O)O)c4cc(O)cc(O)c4-c4cc3ccc4O)[C@H](O)c3ccc(c(Cl)c3)Oc3cc2cc(c3O[C@@H]2O[C@H](CO)[C@@H](O)[C@H](O)[C@H]2O[C@H]2C[C@](C)(N)[C@H](O)[C@H](C)O2)Oc2ccc(cc2Cl)[C@H]1O
Label class: 0
--
Compound: N[C@@H](CC(=O)O)C(=O)O
Label class: 0
